- TARGET: T1, human activated coagulation factor X (FXa) (human, UniProt P00742 41-179; P00742 235-488)
- T1 construct: mature; also called Factor Xa; human FXa
- T1 sequence (P00742 41-179 limits assumed, chain 1 of 2): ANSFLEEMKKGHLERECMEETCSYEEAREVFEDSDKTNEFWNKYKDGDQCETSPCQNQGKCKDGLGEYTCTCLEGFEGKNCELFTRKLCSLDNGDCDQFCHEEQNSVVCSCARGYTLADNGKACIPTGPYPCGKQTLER
- T1 sequence (P00742 235-488 limits assumed, chain 2 of 2): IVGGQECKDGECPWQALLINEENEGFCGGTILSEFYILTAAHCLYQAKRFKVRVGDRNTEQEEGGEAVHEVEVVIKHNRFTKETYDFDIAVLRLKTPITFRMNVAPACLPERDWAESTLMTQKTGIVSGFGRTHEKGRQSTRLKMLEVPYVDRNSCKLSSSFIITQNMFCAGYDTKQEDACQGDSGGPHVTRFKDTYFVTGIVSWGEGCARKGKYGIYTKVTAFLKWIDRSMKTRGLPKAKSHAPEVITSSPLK
- PROCEDURE DETAILS: SPR (Biacore T100), rSimukunin immobilized on CM5, FXa as analyte, 1:1 Langmuir fit
QUANTITY NAME: Kd
# include the unit after the value

Form field: reported Kd of recombinant Simukunin (rSV-66), Simulium vittatum SV-66 without signal peptide, His-tagged, expressed in E. coli (other, also called rSimukunin; WT rSimukunin; not shown: His tag(s) from vector pET-30 Ek/LIC ('C-terminal double His tags')) QENVCNLPVDEGVCRALFKRFYYEPATDSCKEFYYGGCEGNGNRFKSKKECILKCQKNKQLIKTRKRKPKKTTKPPIPIISLD
3.07 nM
